# System name: SaCYP76F37v1 (SaCYP76-G11) (Santalum album)
# Test summary: Substrate specificity, yeast microsomes containing SaCYP76F37v1 with various sesquiterpenes
# Assay type: biochemical
# Cond: rate of product formation relative to product formation by SaCYP76F39v1 with β-santalene; 40 μM of substrate, 30° C., 2 hours
Endpoint name: activity at 40 µM (%)
Give bare numbers, in %.

C=C(CCC=C(C)C)C1CC=C(C)CC1 (stereo not drawn)
0
C=C1[C@@H]2CC[C@@H](C2)[C@@]1(C)CCC=C(C)C
17.7
CC(C)=CCC[C@]1(C)C2C[C@@H]3[C@H](C2)C31C
17.3
CC(C)=CCCC(C)c1ccc(C)cc1 (stereo not drawn)
0
CC(C)=CCCC(C)(O)C1CC=C(C)CC1 (stereo not drawn)
0
CC(C)=CCCC(C)C1C=CC(C)=CC1 (stereo not drawn)
0
C=CC(C)(O)CC/C=C(\C)CCC=C(C)C (stereo not drawn) [trans-nerolidol]
11.3
C=C1C=CC(C(C)CCC=C(C)C)CC1 (stereo not drawn)
0

Req: Give recorded activity at 40 µM. C=CC(=C)CC/C=C(\C)CCC=C(C)C [trans-farnesene]
Resp: 0

* * *

# System name: SaCYP76F39v1 (SaCYP76-G10) (Santalum album)
# Test summary: Substrate specificity, yeast microsomes containing SaCYP76F39v1 with various sesquiterpenes
# Type: biochemical
# Cond: rate of product formation relative to product formation by SaCYP76F39v1 with β-santalene; 40 μM of substrate, 30° C., 2 hours
Endpoint name: activity at 40 µM (%)
Answers are plain numbers, in %.

# example entries with known answers
C=C(CCC=C(C)C)C1CC=C(C)CC1 (stereo not drawn)
0
CC(C)=CCCC(C)(O)C1CC=C(C)CC1 (stereo not drawn)
9.4

Return reported activity at 40 µM values for all items listed beneath this line.
1. CC(C)=CCC[C@]1(C)C2C[C@@H]3[C@H](C2)C31C
2. C=C1C=CC(C(C)CCC=C(C)C)CC1 (stereo not drawn)
3. CC(C)=CCCC(C)C1C=CC(C)=CC1 (stereo not drawn)
4. C=CC(C)(O)CC/C=C(\C)CCC=C(C)C (stereo not drawn) [trans-nerolidol]
5. C=CC(=C)CC/C=C(\C)CCC=C(C)C [trans-farnesene]
6. C=C1[C@@H]2CC[C@@H](C2)[C@@]1(C)CCC=C(C)C
7. CC(C)=CCCC(C)c1ccc(C)cc1 (stereo not drawn)

Resp:
99.8
0
0
0
0
100
0

Just for reference, patent US20180355326A1 is where these values come from.
